# log10 Ki measurements, system: HPK1 (Homo sapiens (Human), UniProt Q92918)
# Sequence (Q92918 1-346 limits assumed): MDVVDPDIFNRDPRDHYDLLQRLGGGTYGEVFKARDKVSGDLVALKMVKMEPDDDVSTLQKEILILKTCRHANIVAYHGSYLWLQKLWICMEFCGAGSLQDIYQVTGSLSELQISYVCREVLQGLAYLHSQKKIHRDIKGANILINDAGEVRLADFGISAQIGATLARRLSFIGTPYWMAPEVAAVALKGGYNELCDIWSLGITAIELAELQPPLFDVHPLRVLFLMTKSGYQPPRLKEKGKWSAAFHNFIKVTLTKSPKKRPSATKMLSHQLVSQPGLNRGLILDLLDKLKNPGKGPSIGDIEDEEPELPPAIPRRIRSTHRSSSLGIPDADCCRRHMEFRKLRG
ASSAY READOUT: log10 Ki (log10 of the value in nM)

MOLECULE	VALUE OBSERVED
CN(C)C(=O)c1c(N)ccc(-c2cnc3c(c2Cl)[C@]2(CC[C@H](n4cnc(N)n4)C2)CN3)c1F (relative stereo) [Compound 119a]	1.89
CN(C)C(=O)c1c(N)ccc(-c2cnc3c(c2Cl)[C@]2(CC[C@@H](O)CC2)CN3)c1F [Compound 144a]	1.60
CN(C)C(=O)c1c(N)ccc(-c2cnc3c(c2)[C@]2(CN3)C[C@@H](O)C2)c1F [Compound 77b]	2.34
CN(C)C(=O)c1c(N)ccc(-c2cnc3c(c2Cl)[C@]2(CC[C@H](C(N)=O)C2)CN3)c1F (relative stereo) [Compound 84c]	0.32
CN(C)C(=O)c1c(N)ccc(-c2cnc3c(c2Cl)[C@]2(CC[C@](O)(CC#N)C2)CN3)c1F [Compound 109a]	1.40
CN(C)C(=O)c1c(N)ccc(-c2cnc3c(c2Cl)[C@@]2(CN3)C[C@@H]2c2ccccc2)c1F (relative stereo) [Compound 201a]	0.55
O=C1OCc2ccc(-c3cnc4c(c3)C3(CC3)CN4)cc21 [Compound 277]	2.53
NC(=O)C1(c2cccc(-c3cnc4c(c3Cl)C3(CC=CC3)CN4)c2)CC1 [Compound 236]	1.52
CN(C)C(=O)c1c(N)ccc(-c2cnc3c(c2)[C@]2(CN3)C[C@@](O)(C(F)(F)F)C2)c1F [Compound 87a]	2.55
CN(C)S(=O)(=O)c1cccc(-c2cnc3c(c2)C2(CC2)CN3)c1F [Compound 21]	2.47
